# protocol: CD spectroscopy, secondary structure content (DichroWeb)
# Assay type: physicochemical
# recorded-conditions: CD in DPC micelles (20 mM), peptide 50 μM, 25 °C, DichroWeb
Bridge positions count the residues as written; N and C are the ends. Square brackets hold non-standard residues; d marks the D form. Peptide text beside a SMILES is read from it.
readout-label: β-strand-1 (regular β-strand) (%)

1. CC[C@H](C)[C@H](NC(=O)[C@H](CCCNC(=N)N)NC(=O)[C@@H]1CCCCn2cc(nn2)C[C@H](NC(=O)[C@H](Cc2ccccc2)NC(=O)[C@H](Cc2c[nH]c3ccccc23)NC(=O)[C@@H]2CCCN2C(=O)[C@@H](NC(=O)[C@@H](N)Cc2ccccc2)C(C)C)C(=O)N[C@@H](CCCCN)C(=O)N[C@@H](Cc2ccccc2)C(=O)NC(CC(C)C)C(=O)N1)C(=O)N[C@@H](CC(C)C)C(N)=O (stereo in doubt) [compound 17] : 9
2. CC[C@H](C)[C@H](NC(=O)[C@H](CCCNC(=N)N)NC(=O)[C@]1(C)CCCC=CCCC[C@](C)(NC(=O)[C@H](Cc2ccccc2)NC(=O)[C@H](Cc2c[nH]c3ccccc23)NC(=O)[C@@H]2CCCN2C(=O)[C@@H](NC(=O)[C@@H](N)Cc2ccccc2)C(C)C)C(=O)N[C@@H](CCCCN)C(=O)N[C@@H](Cc2ccccc2)C(=O)N[C@H](CC(C)C)C(=O)N1)C(=O)N[C@@H](CC(C)C)C(N)=O [compound 25] : 0
3. CC[C@H](C)[C@H](NC(=O)[C@H](CCCNC(=N)N)NC(=O)[C@@H]1CCCCNC(=O)CC[C@H](NC(=O)[C@H](Cc2ccccc2)NC(=O)[C@H](Cc2c[nH]c3ccccc23)NC(=O)[C@@H]2CCCN2C(=O)[C@@H](NC(=O)[C@@H](N)Cc2ccccc2)C(C)C)C(=O)N[C@@H](CCCCN)C(=O)N[C@@H](Cc2ccccc2)C(=O)N[C@H](CC(C)C)C(=O)N1)C(=O)N[C@@H](CC(C)C)C(N)=O [compound 24] (H-FVPWFEKF[dL]KRIL-NH2; lactam 6-10) : 0
4. CC[C@H](C)[C@H](NC(=O)[C@H](CCCNC(=N)N)NC(=O)[C@@H]1CCC(=O)NCCCC[C@H](NC(=O)[C@H](Cc2ccccc2)NC(=O)[C@H](Cc2c[nH]c3ccccc23)NC(=O)[C@@H]2CCCN2C(=O)[C@@H](NC(=O)[C@@H](N)Cc2ccccc2)C(C)C)C(=O)N[C@@H](CCCCN)C(=O)N[C@@H](Cc2ccccc2)C(=O)N[C@H](CC(C)C)C(=O)N1)C(=O)N[C@@H](CC(C)C)C(N)=O [compound 12] (H-FVPWFKKF[dL]ERIL-NH2; lactam 6-10) : 1
